- test_summary: Binding affinity to human His6-HALO-TEV DCAF15/DDB1/DDA1 complex assessed as displacement of fluorophore tagged indisulam analogue from complex measured after 1 hr by TR-FRET assay
pIC50: −log10 of the molar value.
pIC50 below 6 gives FALSE; pIC50 at or above it gives TRUE.

Take a look at these entries with their results.
Tell me whether pIC50 is at least 6 here: `COCCNC(=O)c1oc(S(=O)(=O)Nc2ccc(Cl)c3c(Cl)c[nH]c23)cc1C` TRUE

Now this one: `Cc1sc(S(=O)(=O)Nc2ccc(Cl)c3c(Cl)c[nH]c23)cc1C(=O)N(C)C` TRUE

Now this one: `Cc1cc(S(=O)(=O)Nc2ccc(Cl)c3c(Cl)c[nH]c23)oc1C(=O)N1CCC(C(=O)N2CCN(CC3CCN(C(=O)C[C@@H]4N=C(c5ccc(Cl)cc5)c5c(sc(C)c5C)-n5c(C)nnc54)CC3)CC2)CC1` TRUE

Now this one: `N#Cc1cccc(S(=O)(=O)Nc2ccc(Cl)c3c(C#N)c[nH]c23)c1` FALSE

More entries:
Tell me whether pIC50 is at least 6 here: `CNC(=O)[C@@H]1CCN(C(=O)c2oc(S(=O)(=O)Nc3ccc(Cl)c4c(Cl)c[nH]c34)cc2C)C1` TRUE

Now this one: `Cc1sc(S(=O)(=O)Nc2ccc(Cl)c3c(Cl)c[nH]c23)nc1C(=O)N(C)C` TRUE

Now this one: `N#Cc1cccc(S(=O)(=O)Nc2ccc(F)c3c(C#N)c[nH]c23)c1` FALSE

Now this one: `CNC(=O)c1oc(S(=O)(=O)Nc2ccc(Cl)c3c(Cl)c[nH]c23)cc1C` TRUE

Now this one: `Cc1ccc(NS(=O)(=O)c2cccc(C#N)c2)c2[nH]cc(C#N)c12` FALSE

Now this one: `Cc1cc(S(=O)(=O)Nc2ccc(Cl)c3c(Cl)c[nH]c23)oc1C(=O)N(C)C` TRUE

Now this one: `Cc1cc(S(=O)(=O)Nc2ccc(Cl)c3c(Cl)c[nH]c23)oc1C(=O)N1CCCCC1` TRUE
